System: MDA-MB-435
Assay: NCI tumour cell line growth inhibition, 48 h
Calls of active or inactive are those of the source. Cut-off read from the data, not from the text of the source: active = GI50 up to about 1.1 µM and inactive = higher.
endpoint label: GI50

COC(=O)[C@@H]1[C@H]2CC[C@]3(C)[C@@H](OC(C)=O)CC[C@H]3[C@@H]2CC[C@H]1C(C)=O
> 100 µM (inactive)
COc1ccc(N2CCOCC2)cc1
> 100 µM (inactive)
COc1ccc(NC(=S)Nc2cc(C)ccn2)cc1
> 100 µM (inactive)
CC1=C2NCN(C)N=C2C(C#N)(C#N)C1(C#N)C#N
21.7 µM (inactive)

## Task Write down the reported GI50 (system: MDA-MB-435) of CCOC(=O)Cc1csc(N/C=C2/C(=O)Oc3ccccc3C2=O)n1
## Result 23.9 µM (inactive)

## Task Retrieve GI50 on MDA-MB-435; query CCCCCCCCCCN(CCCCCCCCCC)C(=O)COc1c2cc(C(C)(C)C)cc1Cc1cc(C(C)(C)C)cc(c1OCC(=O)N(CCCCCCCCCC)CCCCCCCCCC)Cc1cc(C(C)(C)C)cc(c1OCC(=O)N(CCCCCCCCCC)CCCCCCCCCC)Cc1cc(C(C)(C)C)cc(c1OCC(=O)N(CCCCCCCCCC)CCCCCCCCCC)C2
## Result 12.9 µM (inactive)

## Task For MDA-MB-435, give GI50 of the listed compound: CN(C)c1ccc2c(SCC(=O)OCC(=O)[C@@]3(O)CC[C@H]4[C@@H]5CCC6=CC(=O)C=C[C@]6(C)[C@H]5C(=O)C[C@@]43C)c3ccc(N(C)C)cc3nc2c1
## Result 17 µM (inactive)
